# System: IL-6/pSTAT3
# Assay notes: IL-6 induced pSTAT3 assay in TF-1 cells
# Format: cell-based
# Particulars: Homo sapiens, read-out: Cellular selectivity (IL-6/pSTAT3)
# Source text: The following example describes the IL-6 induced pSTAT3 assay used to determine the cellular selectivity (IL-6/pSTAT3) of the TYK2 inhibitors. […]
Listed below: IC50 values for each entry.

- Compound: "CS(=O)(=O)c1ccccc1Nc1cc(Nc2ccc(CNC3CCOC3)cn2)ncn1 (stereo not shown) [Compound 28]"
  Measured quantity: "IC50"
  Experimental result: "> 10 µM"
- Compound: "CC(c1ccc(Nc2cc(Nc3ncccc3S(C)(=O)=O)ncn2)nc1)N1CC2(CC(F)C2)C1 (stereo in doubt) [Compound 10]"
  Measured quantity: "IC50"
  Experimental result: "4 to 10 µM"
- Compound: "CS(=O)(=O)c1cccnc1Nc1cc(Nc2ccc3c(n2)CCC[C@@H]3N2CC3(COC3)C2)ncn1 [Compound 5]"
  Measured quantity: "IC50"
  Experimental result: "4 to 10 µM"

We now examine a further compound.
# IC50 (compound: CS(=O)(=O)c1cccnc1Nc1cc(Nc2cccc(C(F)(F)F)n2)ncn1 [Compound 19] ) is > 10 µM
